Structures can show the parent of a compound that is named as a salt.
parameter measured: melting point (°C)

Solved cases below.
CN1CCC(OC(c2cccc(OCc3ccncc3)c2)c2nc3ccccc3s2)CC1 (stereo not shown) (as salt: oxalate); 101
CN1CCC(OC(c2cccc(N3CCOCC3)c2)c2nc3ccccc3s2)CC1 (stereo not shown) (as salt: oxalate); 111
CN1CCC(OC(c2cccc(-c3ccc(F)cc3)c2)c2nc3ccccc3[nH]2)CC1 (stereo not shown) (as salt: oxalate); 100
CN1CCC(NC(c2cccc(OCc3cccc(F)c3)c2)c2nc3ccccc3[nH]2)CC1 (stereo not shown) (as salt: oxalate); 116

1. CN1CCC(OC(c2ccc3c(c2)OCCC3)c2nc3ccccc3[nH]2)CC1 (stereo not shown)
2. CN1CCC(OC(c2ccccc2)c2nc3ccccc3[nH]2)C1 (stereo not shown)
3. CN1CCC(OC(c2ccc(N)cc2)c2nc3ccccc3[nH]2)CC1 (stereo not shown) (as salt: hydrochloride)
Prompt: Hey, quick one: sort these by melting point, largest value first please. Could you list the labels in the order requested?
Response: 3, 1, 2
